These entries and their values trace back to patent US12630547B2.

Tested on: MOLM-13 cells
test.protocol: Cell viability assay (CELLTITER-GLO), MOLM-13 cells
Type: cell-based
experimental.conditions: Homo sapiens, MOLM-13, 72 h; Table 2; compound at 10 μM, 3 days; read-out: Effect on MOLM-13 cell viability (% DMSO)
observed.property: viability at 10 µM

Past entries and their recorded results:
O=C1CCC(N2Cc3c(cc(F)cc3C3CCN(CCCCCCCOc4cccc(F)c4-c4c(Cl)cc5c(N6CCN(C(=O)C7CCNC7)CC6)ncnc5c4F)CC3)C2=O)C(=O)N1 (stereo not shown) :: < 10%
C=CC(=O)N1CC(c2nc3ccc(-c4cc(O)cc5ccccc45)cc3c(=O)n2CCNCc2ccc(OCc3scc4c3CN(C3CCC(=O)NC3=O)C4=O)cc2)C1 (stereo not shown) :: ≥ 50%
CCC(=O)N1C[C@@H]2C(=O)N(C)c3cnc4c(F)c(-c5c(F)cccc5OCCCCCCCN5CCC(c6cc(F)cc7c6CN(C6CCC(=O)NC6=O)C7=O)CC5)c(Cl)cc4c3N2C[C@H]1C (stereo partly shown) :: < 10%
CC(C)/C=C(\Cl)C(=O)N1CCN(c2ncnc3c(F)c(-c4c(F)cccc4OCCCCCCCN4CCC(c5cc(F)cc6c5CN(C5CCC(=O)NC5=O)C6=O)CC4)c(Cl)cc23)CC1 (stereo not shown) :: < 10%

Next up:
Exercise: Endpoint output: viability at 10 µM of C=CC(=O)N1CC(N2Cc3ccc(-c4cc(O)cc5ccccc45)cc3N(CCCCNCc3ccc(OCc4scc5c4CN([C@H]4CCC(=O)NC4=O)C5=O)cc3)C2=O)C1 . Value?
Key: ≥ 50%

---

System: MOLM-13 cells
test.protocol: Cell viability assay (CELLTITER-GLO), MOLM-13 cells
Format: cell-based
experimental.conditions: Homo sapiens, MOLM-13, 72 h; Table 2; compound at 10 μM, 3 days; read-out: Effect on MOLM-13 cell viability (% DMSO)
Some molecules, each annotated with its measured viability at 10 µM.

Past entries and their recorded results:
CCC(=O)N1CCN(c2ncnc3c(Cl)c(-c4c(F)cccc4OCCCCCCCCN4CCC(c5cc(F)cc6c5CN(C5CCC(=O)NC5=O)C6=O)CC4)c(F)cc23)CC1 (stereo not shown) :: < 10%
CCC(=O)N1CCN(c2ncnc3c(F)c(-c4c(F)cccc4OCCCCCCCCCCC(=O)N[C@H](C(=O)N4C[C@H](O)C[C@H]4C(=O)NCc4ccc(-c5scnc5C)cc4)C(C)(C)C)c(Cl)cc23)CC1 :: ≥ 50%
NC(=O)N1CCN(c2ncnc3c(F)c(-c4c(F)cccc4OCCOCCOCCOCCNc4cccc5c4C(=O)N(C4CCC(=O)NC4=O)C5=O)c(Cl)cc23)CC1 (stereo not shown) :: ≥ 50%
C=C(Cl)C(=O)N1CCN(c2ncnc3c(F)c(-c4c(F)cccc4OCCCCCCCN4CCCC(c5cc6c(cc5F)C(=O)N(C5CCC(=O)NC5=O)C6)C4)c(Cl)cc23)CC1 (stereo not shown) :: < 10%
C/C=C(\Cl)C(=O)N1CCN(c2ncnc3c(F)c(-c4c(F)cccc4OCCCCCCCN4CCC(c5cc(F)cc6c5CN(C5CCC(=O)NC5=O)C6=O)CC4)c(Cl)cc23)CC1 (stereo not shown) :: < 10%

Exercise: Endpoint output: viability at 10 µM of C=C(Cl)C(=O)N1CCN(c2nc(=O)n(-c3ccccc3C(C)C)c3nc(-c4c(F)cccc4OCCCCCCCN4CCC(c5cc(F)cc6c5CN(C5CCC(=O)NC5=O)C6=O)CC4)c(F)cc23)[C@@H](C)C1 (stereo partly shown) . Value?
Key: < 10%

Exercise: Next up: C=CC(=O)N1CCN(c2ncnc3c(F)c(-c4cc(OCCOCCOCCC(=O)NCCNc5cccc6c5CN(C5CCC(=O)NC5=O)C6=O)ccc4F)c(Cl)cc23)CC1 (stereo not shown)
Key: ≥ 50%

Exercise: Next up: C=C(Cl)C(=O)N1CCN(c2nc(OC[C@@H]3CCCN3C)nc3c(F)c(-c4c(F)cccc4OCCCCCCCN4CCC(c5cc(F)cc6c5CN(C5CCC(=O)NC5=O)C6=O)CC4)c(Cl)cc23)C[C@H]1CC#N (stereo partly shown)
Key: < 10%

Exercise: Next up: C=CC(=O)N1C[C@H](C)N(c2nc(OCCOCCOCCOCCNc3cccc4c3C(=O)N(C3CCC(=O)NC3=O)C4=O)nc3c(F)c(-c4c(O)cccc4F)c(Cl)cc23)C[C@H]1C (stereo partly shown)
Key: < 10%

Exercise: Next up: C=C(Cl)C(=O)N1CCN(c2ncnc3c(F)c(-c4c(F)cccc4OCCN4CCC(CCN5CCC(c6cc(F)cc7c6CN(C6CCC(=O)NC6=O)C7=O)CC5)CC4)c(Cl)cc23)CC1 (stereo not shown)
Key: < 10%

---

Test system: H358 cells
test.protocol: Cell viability assay (CELLTITER-GLO), H358 cells
Format: cell-based
experimental.conditions: Homo sapiens, NCI-H358, 72 h; Table 4; 3 days; read-out: Inhibition of H358 cells, IC50
observed.property: IC50 (µM)
Give just the numeric value; µM need not be written.

Exercise: Endpoint output: IC50 of C=CC(=O)N1CCN(c2ncnc3c(F)c(-c4c(O)cccc4F)c(Cl)cc23)CC1 [A, reference compound] . Value?
Key: 0.99

---

System: H358 cells
test.protocol: Cell viability assay (CELLTITER-GLO), H358 cells
Assay type: cell-based
experimental.conditions: Table 4; 3 days
observed.property: Inhibition of H358 cells, IC50 (class)

Past entries and their recorded results:
C=C(Cl)C(=O)N1CCN(c2nc(OC[C@@H]3CCCN3C)nc3c(F)c(-c4c(F)cccc4OCCCCCCCN4CCC(c5cc(F)cc6c5CN(C5CCC(=O)NC5=O)C6=O)CC4)c(Cl)cc23)C[C@H]1CC#N (some centres unmarked) [Compound 128] :: A′
C=C(Cl)C(=O)N1CCN(c2ncnc3c(F)c(-c4c(F)cccc4OCCC4CCC(CCN5CCC(c6cc(F)cc7c6CN(C6CCC(=O)NC6=O)C7=O)CC5)CC4)c(Cl)cc23)CC1 (centres unmarked) [Compound 116] :: A′
C=CC(=O)N1CCN(c2ncnc3c(F)c(-c4cc(OCCOCCOCCC(=O)NCCNc5cccc6c5CN(C5CCC(=O)NC5=O)C6=O)ccc4F)c(Cl)cc23)CC1 (centres unmarked) [Compound 39] :: D′
CCC(=O)N1CCN(c2ncnc3c(F)c(-c4c(F)cccc4OCCCCCCCN4CCC(c5scc6c5CN(C5CCC(=O)NC5=O)C6=O)CC4)c(Cl)cc23)CC1 (centres unmarked) [Compound 71] :: B′

Exercise: # get_value(readout= Inhibition of H358 cells, IC50 (class), system= H358 cells) for C=C(Cl)C(=O)N1CCN(c2ncnc3c(F)c(-c4c(F)cccc4OCCCCCCCCCCCN4CCC(c5cc(F)cc6c5CN(C5CCC(=O)NC5=O)C6=O)CC4)c(Cl)cc23)CC1 (centres unmarked) [Compound 114]
Key: B′

---

Some compounds, each annotated with its measured viability at 10 µM.
Test system: MOLM-13 cells
test.protocol: Cell viability assay (CELLTITER-GLO), MOLM-13 cells
Type: cell-based
experimental.conditions: Homo sapiens, MOLM-13, 72 h; Table 2; compound at 10 μM, 3 days; read-out: Effect on MOLM-13 cell viability (% DMSO)

Exercise: Endpoint output: viability at 10 µM of O=C1CCC(N2Cc3c(cc(F)cc3C3CCN(CCCCCCCOc4cccc(F)c4-c4c(Cl)cc5c(N6CCN(C(=O)C7COC7)CC6)ncnc5c4F)CC3)C2=O)C(=O)N1 (centres unmarked) [Compound 81] . Value?
Key: ≥ 50%

Exercise: Next up: C=C(Cl)C(=O)N1CCN(c2ncnc3c(F)c(-c4c(F)cccc4OCCCCCCCN4CCC(c5cc(F)cc6c5CN(C5CCC(=O)NC5=O)C6=O)CC4)c(Cl)cc23)C[C@H]1CC#N (some centres unmarked) [Compound 102]
Key: < 10%

Exercise: Next up: CCC(=O)N1CCN(c2ncnc3c(F)c(-c4c(F)cccc4OCCCNCc4ccc(COc5cccc6c5CN([C@H]5CCC(=O)NC5=O)C6=O)cc4)c(Cl)cc23)CC1 [Compound 63]
Key: 10 to 25%

Exercise: Next up: C=C(Cl)C(=O)N1CCN(c2nc(=O)n(-c3ccc(CCCCCCCN4CCC(c5cc(F)cc6c5CN(C5CCC(=O)NC5=O)C6=O)CC4)cc3C(C)C)c3nc(-c4c(O)cccc4F)c(F)cc23)[C@@H](C)C1 (some centres unmarked) [Compound 126]
Key: < 10%

Exercise: Next up: C=C(Cl)C(=O)N1CCN(c2ncnc3c(F)c(-c4c(F)cccc4OC[C@H]4CC[C@H](CN5CCC(c6cc(F)cc7c6CN(C6CCC(=O)NC6=O)C7=O)CC5)CC4)c(Cl)cc23)CC1 (some centres unmarked) [Compound 117]
Key: < 10%
